# System: Amaranthus rudis (AMATA), tall water hemp
# run.description: Postemergence herbicide evaluation, growth of Amaranthus rudis (AMATA)
# Assay type: in vivo
# condition.summary: Amaranthus tuberculatus, post-emergence, 504 h, 560 g ae/ha, 21 DAA; read-out: Ave. AMATA, percent reduction in plant size relative to the untreated control
result.type: pest or weed control at 560 g/ha (%)
Kindly answer with a numeric value in %, unit omitted.

// below: answered molecules
[
  {
    "record.smiles": "COc1ccc(/C=N/OC(=O)COc2ccc(Cl)cc2Cl)cc1",
    "result.type": "pest or weed control at 560 g/ha",
    "test.result": 67.5
  },
  {
    "record.smiles": "O=C(COc1ccc(Cl)cc1Cl)Nc1nccs1",
    "result.type": "pest or weed control at 560 g/ha",
    "test.result": 92.5
  },
  {
    "record.smiles": "Cc1nccc(NC(=O)COc2ccc(Cl)cc2Cl)c1C",
    "result.type": "pest or weed control at 560 g/ha",
    "test.result": 87.5
  },
  {
    "record.smiles": "O=C(COc1ccc(Cl)cc1Cl)Oc1ncc(Cl)cn1",
    "result.type": "pest or weed control at 560 g/ha",
    "test.result": 99
  },
  {
    "record.smiles": "C/C(=N\\OC(=O)COc1ccc(Cl)cc1Cl)c1ccccc1Cl",
    "result.type": "pest or weed control at 560 g/ha",
    "test.result": 72.5
  }
]

Entry under review: "O=C(COc1ccc(Cl)cc1Cl)O/N=C/c1ccccc1" . Reported pest or weed control at 560 g/ha?
87

Name the reported pest or weed control at 560 g/ha value associated with the molecule "C/C(=N\OC(=O)COc1ccc(Cl)cc1Cl)c1ccccc1"
82

I would be grateful if you could share the reported pest or weed control at 560 g/ha for "CC(C)ONC(=O)COc1ccc(Cl)cc1Cl" .
87.5

Quick check: pest or weed control at 560 g/ha of "C/C(=N\OC(=O)COc1ccc(Cl)cc1Cl)c1ccncc1" ?
77.5

# get_value(readout='pest or weed control at 560 g/ha', item= "O=C(COc1ccc(Cl)cc1Cl)Nc1cc[nH]n1" )
100
